- System: mTORC1 signaling
- Test protocol: MEF TSC1−/− cell-based assay for rapalog potency (pS6)
- Design: species or system Mouse
- Condition info: Mus musculus, MEF TSC1−/− cells; average from multiple assays
Assignment: determine reported IC50 for the given molecules.
Put your answer as a value accompanied by its unit after it.

CO[C@@H]1C[C@H](C[C@@H](C)[C@@H]2CC[C@H](C)/C=C(\C)[C@@H](O)[C@@H](OC)C(=O)[C@H](C)C[C@H](C)/C=C/C=C/C=C(\C)C(N3CCCS3(=O)=O)C[C@@H]3CC[C@@H](C)[C@@](O)(O3)C(=O)C(=O)N3CCCC[C@H]3C(=O)O2)CC[C@@H]1n1cnnn1 (single isomer, unassigned)	1.1 nM
CO[C@H]1C[C@@H]2CC[C@@H](C)[C@@](O)(O2)C(=O)C(=O)N2CCCC[C@H]2C(=O)O[C@H]([C@H](C)C[C@@H]2CC[C@@H](O)[C@H](OC)C2)CC[C@H](C)/C=C(\C)[C@@H](O)[C@@H](OC)C(=O)[C@H](C)C[C@H](C)/C=C/C=C/C=C/1C [Intermediate 1, C32-deoxo-rapamycin, reference compound]	0.092 nM

Now consider the entry below.
For the molecule CO[C@@H]1C[C@H](C[C@@H](C)[C@@H]2CC[C@H](C)/C=C(\C)[C@@H](O)[C@@H](OC)C(=O)[C@H](C)C[C@H](C)/C=C/C=C/C=C(\C)C(N3CCS3(=O)=O)C[C@@H]3CC[C@@H](C)[C@@](O)(O3)C(=O)C(=O)N3CCCC[C@H]3C(=O)O2)CC[C@H]1OP(C)(C)=O (single isomer, unassigned) [Example 11] , the measured IC50 on mTORC1 signaling was 3.33 nM

---

- Target or system: UniProt Q13451
- Sequence (Q13451 whole entry): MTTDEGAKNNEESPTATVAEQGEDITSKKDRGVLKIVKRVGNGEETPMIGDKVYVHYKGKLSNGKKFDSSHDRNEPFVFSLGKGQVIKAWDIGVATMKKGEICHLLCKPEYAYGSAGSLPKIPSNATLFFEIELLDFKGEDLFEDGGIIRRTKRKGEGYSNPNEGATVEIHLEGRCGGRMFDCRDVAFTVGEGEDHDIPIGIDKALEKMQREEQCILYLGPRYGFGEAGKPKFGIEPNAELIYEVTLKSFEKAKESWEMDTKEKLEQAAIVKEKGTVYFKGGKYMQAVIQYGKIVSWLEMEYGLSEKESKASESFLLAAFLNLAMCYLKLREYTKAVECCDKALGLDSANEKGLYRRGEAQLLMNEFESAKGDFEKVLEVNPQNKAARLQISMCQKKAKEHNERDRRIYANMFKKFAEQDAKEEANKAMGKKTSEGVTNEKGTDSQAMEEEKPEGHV
Rule: Kd below 800 nM gives Y, anything at or above gives N.

A selection of reference data follows.
CO[C@@H]1C[C@H](C[C@@H](C)[C@@H]2CC[C@H](C)/C=C(\C)[C@@H](O)[C@@H](OC)C(=O)[C@H](C)C[C@H](C)/C=C/C=C/C=C(\C)[C@H](N3CCCS3(=O)=O)C[C@@H]3CC[C@@H](C)[C@@](O)(O3)C(=O)C(=O)N3CCCC[C@H]3C(=O)O2)CC[C@H]1OCCO	N
CO[C@@H]1C[C@H](C[C@@H](C)[C@@H]2CC[C@H](C)/C=C(\C)[C@@H](O)[C@@H](OC)C(=O)[C@H](C)C[C@H](C)/C=C/C=C/C=C(\C)C(N3CCS3(=O)=O)C[C@@H]3CC[C@@H](C)[C@@](O)(O3)C(=O)C(=O)N3CCCC[C@H]3C(=O)O2)CC[C@H]1O (single isomer, unassigned) [Example 7]	Y
CO[C@@H]1C[C@H](C[C@@H](C)[C@@H]2CC[C@H](C)/C=C(\C)[C@@H](O)[C@@H](OC)C(=O)[C@H](C)C[C@H](C)/C=C/C=C/C=C(\C)C(N3CCS3(=O)=O)C[C@@H]3CC[C@@H](C)[C@@](O)(O3)C(=O)C(=O)N3CCCC[C@H]3C(=O)O2)CC[C@H]1OP(C)(C)=O (single isomer, unassigned)	Y
CO[C@@H]1C[C@H](C[C@@H](C)[C@@H]2CC[C@H](C)/C=C(\C)[C@@H](O)[C@@H](OC)C(=O)[C@H](C)C[C@H](C)/C=C/C=C/C=C(\C)[C@@H](N3CCCS3(=O)=O)C[C@@H]3CC[C@@H](C)[C@@](O)(O3)C(=O)C(=O)N3CCCC[C@H]3C(=O)O2)CC[C@H]1O	Y

With those in mind, consider the next molecule.
stdin: Is the reported Kd for CO[C@@H]1C[C@H](C[C@@H](C)[C@@H]2CC[C@H](C)/C=C(\C)[C@@H](O)[C@@H](OC)C(=O)[C@H](C)C[C@H](C)/C=C/C=C/C=C(\C)C(N3CCS3(=O)=O)C[C@@H]3CC[C@@H](C)[C@@](O)(O3)C(=O)C(=O)N3CCCC[C@H]3C(=O)O2)CC[C@H]1O (single isomer, unassigned) [Example 6] strictly below 800 nM?
stdout: Y

---

Assignment: determine reported IC50 for the given molecules.
- Test system: mTORC1 signaling
- Test protocol: MEF TSC1−/− cell-based assay for rapalog potency (pS6)
- Parameters: species or system Mouse
- Condition info: Mus musculus, MEF TSC1−/− cells; average from multiple assays
One number for each entry, in pM.

Below, 5 molecules whose answers are already recorded.
CO[C@@H]1C[C@H](C[C@@H](C)[C@@H]2CC[C@H](C)/C=C(\C)[C@@H](O)[C@@H](OC)C(=O)[C@H](C)C[C@H](C)/C=C/C=C/C=C(\C)[C@H](N3CCCS3(=O)=O)C[C@@H]3CC[C@@H](C)[C@@](O)(O3)C(=O)C(=O)N3CCCC[C@H]3C(=O)O2)CC[C@H]1OCCO [Example 16]	645
CO[C@@H]1C[C@H](C[C@@H](C)[C@@H]2CC[C@H](C)/C=C(\C)[C@@H](O)[C@@H](OC)C(=O)[C@H](C)C[C@H](C)/C=C/C=C/C=C(\C)C(N3CCS3(=O)=O)C[C@@H]3CC[C@@H](C)[C@@](O)(O3)C(=O)C(=O)N3CCCC[C@H]3C(=O)O2)CC[C@@H]1n1cnnn1 (single isomer, unassigned) [Example 12]	374
CO[C@H]1C[C@@H]2CC[C@@H](C)[C@@](O)(O2)C(=O)C(=O)N2CCCC[C@H]2C(=O)O[C@H]([C@H](C)C[C@@H]2CC[C@@H](OCCO)[C@H](OC)C2)CC[C@H](C)/C=C(\C)[C@@H](O)[C@@H](OC)C(=O)[C@H](C)C[C@H](C)/C=C/C=C/C=C/1C [Intermediate 3]	59.1
CO[C@@H]1C[C@H](C[C@@H](C)[C@@H]2CC[C@H](C)/C=C(\C)[C@@H](O)[C@@H](OC)C(=O)[C@H](C)C[C@H](C)/C=C/C=C/C=C(\C)[C@@H](N3CCCS3(=O)=O)C[C@@H]3CC[C@@H](C)[C@@](O)(O3)C(=O)C(=O)N3CCCC[C@H]3C(=O)O2)CC[C@H]1O [Example 1]	2400
CO[C@@H]1C[C@H](C[C@@H](C)[C@@H]2CC[C@H](C)/C=C(\C)[C@@H](O)[C@@H](OC)C(=O)[C@H](C)C[C@H](C)/C=C/C=C/C=C(\C)C(N3CCN(CCO)C3=O)C[C@@H]3CC[C@@H](C)[C@@](O)(O3)C(=O)C(=O)N3CCCC[C@H]3C(=O)O2)CC[C@H]1O (single isomer, unassigned) [Example 5]	153000

Now consider the entry below.
Consider CO[C@H]1C[C@@H]2CC[C@@H](C)[C@@](O)(O2)C(=O)C(=O)N2CCCC[C@H]2C(=O)O[C@H]([C@H](C)C[C@@H]2CC[C@@H](OCCO)[C@H](OC)C2)CC(=O)[C@H](C)/C=C(\C)[C@@H](O)[C@@H](OC)C(=O)[C@H](C)C[C@H](C)/C=C/C=C/C=C/1C [RAD001, everolimus, reference compound] . Its measured IC50 is 50

---

- Test protocol: in vivo
- Condition info: male, Sprague Dawley, rat, whole blood, iv, 1 mg/kg
Recorded endpoint: half-life (h)
Give bare numbers, in h.

Consider `CO[C@@H]1C[C@H](C[C@@H](C)[C@@H]2CC[C@H](C)/C=C(\C)[C@@H](O)[C@@H](OC)C(=O)[C@H](C)C[C@H](C)/C=C/C=C/C=C(\C)[C@H](N3CCCS3(=O)=O)C[C@@H]3CC[C@@H](C)[C@@](O)(O3)C(=O)C(=O)N3CCCC[C@H]3C(=O)O2)CC[C@H]1O` . Its measured half-life is 9.9
